- Test system: diacetyl reductase E1
- experimental_protocol: Substrate spectrum and KM determination, enzyme E1
- Type: biochemical, Lactobacillus kefir
- condition_label: most highly-purified E1; read-out: Km E1
property_name: Km (mM)

compound	target_or_test_system	property_name	numeric_value
CC(=O)CCC(C)=O [2,5-Hexanedione]	diacetyl reductase E1	Km	26
CCOC(=O)C(C)=O [Ethyl pyruvate]	diacetyl reductase E1	Km	2.4
NC(=O)C1=CN([C@@H]2O[C@H](COP(=O)(O)OP(=O)(O)OC[C@H]3O[C@@H](n4cnc5c(N)ncnc54)[C@H](O)[C@@H]3O)[C@@H](O)[C@H]2O)C=CC1 [NADH]	diacetyl reductase E1	Km	0.03
CC(=O)CC(C)=O [Acetylacetone, 2,4-pentanedione]	diacetyl reductase E1	Km	50

* * *

- Test system: diacetyl reductase E1
- experimental_protocol: Substrate spectrum and KM determination, enzyme E1
- Format: biochemical, Lactobacillus kefir
- Parameters: unit not given here
- condition_label: most highly-purified E1
Entries and their Rel. Vmax E1

molecule	Rel. Vmax E1
CC(=O)CC(C)=O [Acetylacetone, 2,4-pentanedione]	8
CC(=O)C(C)=O [Diacetyl]	100
NC(=O)C1=CN([C@@H]2O[C@H](COP(=O)(O)OP(=O)(O)OC[C@H]3O[C@@H](n4cnc5c(N)ncnc54)[C@H](O)[C@@H]3O)[C@@H](O)[C@H]2O)C=CC1 [NADH]	100
CC(=O)CCC(C)=O [2,5-Hexanedione]	7
CCOC(=O)C(C)=O [Ethyl pyruvate]	109

* * *

Entries and their Residual activity of the Lc. enzyme
- Tested on: Lc. enzyme (diacetyl reductase)
- experimental_protocol: Effect of various metal cations and inhibitors on the diacetyl-reducing activity
- Type: biochemical, Lactobacillus kefir
- condition_label: 1 mM, incubation 5 min at 20° C.

compound	target_or_test_system	readout_units	Residual activity of the Lc. enzyme
c1cnc2c(c1)ccc1cccnc12 [1,10-Phenanthroline]	Lc. enzyme (diacetyl reductase)	%	0
[Ba+2].[Cl-].[Cl-] [BaCl2]	Lc. enzyme (diacetyl reductase)	%	102
[Cl][Fe]([Cl])[Cl] [FeCl3]	Lc. enzyme (diacetyl reductase)	%	82
NNc1ccccc1 [Phenylhydrazine]	Lc. enzyme (diacetyl reductase)	%	0
CCC(CC)(C(=O)O)C(=O)O [Diethylmalonic acid]	Lc. enzyme (diacetyl reductase)	%	100
[Ca+2].[Cl-].[Cl-] [CaCl2]	Lc. enzyme (diacetyl reductase)	%	96
O=C(O)c1cc[c]([Hg+])cc1.[OH-] [p-Hydroxymercuribenzoate]	Lc. enzyme (diacetyl reductase)	%	79
[Cl][Cu][Cl] [CuCl2]	Lc. enzyme (diacetyl reductase)	%	0
[Cl-].[Cl-].[Mg+2] [MgCl2]	Lc. enzyme (diacetyl reductase)	%	0
CCN1C(=O)C=CC1=O [N-Ethylmaleimide]	Lc. enzyme (diacetyl reductase)	%	112
O[C@H](CS)[C@H](O)CS [Dithiothreitol]	Lc. enzyme (diacetyl reductase)	%	106
[Cl-].[Cl-].[Co+2] [CoCl2]	Lc. enzyme (diacetyl reductase)	%	102
[Cl-].[Cl-].[Zn+2] [ZnCl2]	Lc. enzyme (diacetyl reductase)	%	85
[Cl][Mn][Cl] [MnCl2, manganese chloride]	Lc. enzyme (diacetyl reductase)	%	91
O=C(O)c1cc(SSc2ccc([N+](=O)[O-])c(C(=O)O)c2)ccc1[N+](=O)[O-] [2,2'-Dinitro-5,5'-dithiodibenzoic acid]	Lc. enzyme (diacetyl reductase)	%	0
O[C@H](CS)[C@@H](O)CS [1,4-Dithioerythritol]	Lc. enzyme (diacetyl reductase)	%	72
N[C@@H](CCC(=O)N[C@@H](CS)C(=O)NCC(=O)O)C(=O)O [Gluthathione]	Lc. enzyme (diacetyl reductase)	%	103
[Cl][Fe][Cl] [FeCl2]	Lc. enzyme (diacetyl reductase)	%	0
N[C@H]1CONC1=O [L-Cycloserine]	Lc. enzyme (diacetyl reductase)	%	100
NC(=O)CI [Iodoacetamide]	Lc. enzyme (diacetyl reductase)	%	99
[Cl][Hg][Cl] [HgCl2]	Lc. enzyme (diacetyl reductase)	%	0
[Cl][Ni][Cl] [NiCl2]	Lc. enzyme (diacetyl reductase)	%	100
c1ccc(-c2ccccn2)nc1 [2,2'-Bipyridyl]	Lc. enzyme (diacetyl reductase)	%	19
